Listing of entries alongside the reported OD450.
- MEASUREMENT_TARGET: T1, human MSLN-FL-his protein (human, UniProt Q13421 296-580)
- T1 construct: also called human MSLN full-length protein; hMSLN-FL-his; not shown: His tag
- T1 sequence (Q13421 other isoform, or with tags, fused parts or gaps): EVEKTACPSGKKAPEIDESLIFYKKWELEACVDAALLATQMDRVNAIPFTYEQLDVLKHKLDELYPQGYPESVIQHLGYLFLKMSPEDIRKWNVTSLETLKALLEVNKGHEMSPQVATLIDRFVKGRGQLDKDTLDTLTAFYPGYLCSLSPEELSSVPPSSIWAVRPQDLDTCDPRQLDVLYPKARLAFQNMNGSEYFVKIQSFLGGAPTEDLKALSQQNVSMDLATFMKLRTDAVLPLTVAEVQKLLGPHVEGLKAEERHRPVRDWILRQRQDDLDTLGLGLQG
- METHOD_SUMMARY: ELISA, coated antigen; antibody 0.001 nM

BINDER	OD450 (OD450)
S009-F5-9.16 (antibody, human IgG1, kappa, V domains shown, Human-murine chimeric antibody, human IgG1/kappa constant regions) VH: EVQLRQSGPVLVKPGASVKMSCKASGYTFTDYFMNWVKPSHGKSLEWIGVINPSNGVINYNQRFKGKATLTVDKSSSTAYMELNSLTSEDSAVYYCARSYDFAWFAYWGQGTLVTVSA VL: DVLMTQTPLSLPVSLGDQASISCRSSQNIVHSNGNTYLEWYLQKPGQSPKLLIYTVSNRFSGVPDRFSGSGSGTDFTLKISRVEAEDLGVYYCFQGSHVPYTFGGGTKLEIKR	0.04
S009-F6-76.1 (antibody, human IgG1, kappa, V domains shown, Human-murine chimeric antibody, human IgG1/kappa constant regions) VH: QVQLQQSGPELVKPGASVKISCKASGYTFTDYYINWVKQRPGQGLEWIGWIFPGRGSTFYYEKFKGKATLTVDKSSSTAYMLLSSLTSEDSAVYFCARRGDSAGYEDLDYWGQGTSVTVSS VL: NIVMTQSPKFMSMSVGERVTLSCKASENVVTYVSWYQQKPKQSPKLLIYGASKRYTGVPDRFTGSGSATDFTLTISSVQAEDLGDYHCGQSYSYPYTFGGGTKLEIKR	0.29

# credit: patent US20250250357A1
